Below is a list of entries, each paired with its recorded Ratio to SEQ ID NO: 52 value.
# test_target: T1, biotinylated recombinant human Fc(gamma) receptor I (human, UniProt P12314 16-288, biotinylated (site not stated))
# T1 construct: Bought reagent, used as surrogate for canine/feline Fc(gamma)RI; also called rhFc(gamma) receptor I; Fc(gamma)RI
# T1 sequence (P12314 16-288 limits assumed): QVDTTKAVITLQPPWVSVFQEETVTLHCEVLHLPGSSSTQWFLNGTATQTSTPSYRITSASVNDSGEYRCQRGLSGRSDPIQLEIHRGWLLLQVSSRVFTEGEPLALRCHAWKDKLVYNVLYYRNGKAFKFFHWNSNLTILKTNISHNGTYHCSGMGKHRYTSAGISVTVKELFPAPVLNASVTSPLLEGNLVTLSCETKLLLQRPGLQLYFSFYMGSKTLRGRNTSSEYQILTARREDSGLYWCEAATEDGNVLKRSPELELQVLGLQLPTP
# protocol_description: ELISA, fusion protein coated, biotinylated rhFc(gamma)RI at 3000 ng/mL, pH 7.4
parameter_measured: Ratio to SEQ ID NO: 52 (ratio)

{"columns": ["binder", "parameter_measured", "value_unit", "readout_value"],
 "data": [
  ["insulin-Fc fusion protein of SEQ ID NO: 104 (Fc fusion, 71% homodimer; also called cNg-NB151-S) FVNQHLCGSHLVEALELVCGERGFHYGGGGGGSGGGGGIVEQCCTSTCSLDQLENYCGGGGGQGGGGQGGGGQGGGGGDCPKCPAPEMLGGPSVFIFPPKPKDTLLIARTPEVTCVVVDLDPEDPEVQISWFVDGKQMQTAKTQPREEQFSGTYRVVSVLPIGHQDWLKGKQFTCKVNNKALPSPIERTISKARGQAHQPSVYVLPPSREELSKNTVSLTCLIKDFFPPDIDVEWQSNGQQEPESKYRTTPPQLDEDGSYFLYSKLSVDKSRWQRGDTFICAVMHEALHNHYTQESLSHSPG", "Ratio to SEQ ID NO: 52", "ratio", 0.32],
  ["insulin-Fc fusion protein of SEQ ID NO: 96 (Fc fusion, purified on Protein A or Protein G) FVNQHLCGSHLVEALELVCGERGFHYGGGGGGSGGGGGIVEQCCTSTCSLDQLENYCGGGGGQGGGGQGGGGQGGGGGRCTDTPPCPVPEPLGGPSVLIFPPKPKDILRITRTPEVTCVVLDLGREDPEVQISWFVDGKEVHTAKTQSREQQFNGTYRVVSVLPIEHQDWLTGKEFKCRVNHIDLPSPIERTISKARGRAHKPSVYVLPPSPKELSSSDTVSITCLIKDFYPPDIDVEWQSNGQQEPERKHRMTPPQLDEDGSYFLYSKLSVDKSRWQQGDPFTCAVMHETLQNHYTDLSLSHSPG", "Ratio to SEQ ID NO: 52", "ratio", 0.53],
  ["insulin-Fc fusion protein of SEQ ID NO: 32 (Fc fusion, homodimer; also called 218d) FVNQHLCGSHLVEALELVCGERGFHYGGGGGGSGGGGGIVEQCCTSTCSLDQLENYCGGGGGQGGGGQGGGGQGGGGGDCPKCPAPEMLGGPSVFIFPPKPKDTLLIARTPEVTCVVVDLDPEDPEVQISWFVDGKQMQTAKTQPREEQFNGTYRVVSVLPIGHQDWLKGKQFTCKVNNKALPSPIERTISKARGQAHQPSVYVLPPSREELSKNTVSLTCLIKDFFPPDIDVEWQSNGQQEPESKYRTTPPQLDEDGSYFLYSKLSVDKSRWQRGDTFICAVMHEALHNHYTQESLSHSPG", "Ratio to SEQ ID NO: 52", "ratio", 0.84],
  ["insulin-Fc fusion protein of SEQ ID NO: 52 (Fc fusion, Homodimer; HEK293, Protein A) FVNQHLCGSDLVEALALVCGERGFFYTDPTGGGPRRGIVEQCCHSICSLYQLENYCNGGGGAGGGGDCPKCPAPEMLGGPSVFIFPPKPKDTLLIARTPEVTCVVVDLDPEDPEVQISWFVDGKQMQTAKTQPREEQFNGTYRVVSVLPIGHQDWLKGKQFTCKVNNKALPSPIERTISKARGQAHQPSVYVLPPSREELSKNTVSLTCLIKDFFPPDIDVEWQSNGQQEPESKYRTTPPQLDEDGSYFLYSKLSVDKSRWQRGDTFICAVMHEALHNHYTQESLSHSPG", "Ratio to SEQ ID NO: 52", "ratio", 1],
  ["insulin-Fc fusion protein of SEQ ID NO: 36 (Fc fusion, homodimer; also called cNg-S and B16A) FVNQHLCGSHLVEALALVCGERGFHYGGGGGGSGGGGGIVEQCCTSTCSLDQLENYCGGGGGQGGGGQGGGGQGGGGGDCPKCPAPEMLGGPSVFIFPPKPKDTLLIARTPEVTCVVVDLDPEDPEVQISWFVDGKQMQTAKTQPREEQFSGTYRVVSVLPIGHQDWLKGKQFTCKVNNKALPSPIERTISKARGQAHQPSVYVLPPSREELSKNTVSLTCLIKDFFPPDIDVEWQSNGQQEPESKYRTTPPQLDEDGSYFLYSKLSVDKSRWQRGDTFICAVMHEALHNHYTQESLSHSPG", "Ratio to SEQ ID NO: 52", "ratio", 0.32],
  ["insulin-Fc fusion protein of SEQ ID NO: 102 (Fc fusion, 73% homodimer; also called cNg-NB151-S, NB119-A) FVNQHLCGSHLVEALELVCGERGFHYGGGGGGSGGGGGIVEQCCTSTCSLDQLENYCGGGGGQGGGGQGGGGQGGGGGDCPKCPAPEMLGGPSVFIFPPKPKDTLLIARTPEVTCVVVALDPEDPEVQISWFVDGKQMQTAKTQPREEQFSGTYRVVSVLPIGHQDWLKGKQFTCKVNNKALPSPIERTISKARGQAHQPSVYVLPPSREELSKNTVSLTCLIKDFFPPDIDVEWQSNGQQEPESKYRTTPPQLDEDGSYFLYSKLSVDKSRWQRGDTFICAVMHEALHNHYTQESLSHSPG", "Ratio to SEQ ID NO: 52", "ratio", 0.29]
]}
